Every entry's value here was drawn from PubChem BioAssay.

Assay: growth suppression of yeast trafficking mutant, preliminary HTS, modulators of trafficking downstream of Golgi apparatus project, 1536-format plate, OD 615 nm (AID 637)
Settings: yeast transport mutant growth, absorbance 615 nm, 18 h; active compounds read high
assay metric: inhibition (%)
Report only the number, with the unit % understood.

For `Cc1nc2ccccc2c2oc(C(=O)N3CCN(C(=O)c4ccco4)CC3)cc12` the molecule record lists inhibition as 1.67

For CCCNC(=O)C1CC(=O)N(c2ccc(OCC(=O)Nc3cc(C)cc(C)c3)cc2)C1 (stereo not given) the molecule record lists inhibition as -4.33

For COc1ccc(NC(=O)C2CCCN2S(=O)(=O)c2cccc3cccnc23)c(OC)c1 (stereo not given) the molecule record lists inhibition as 84.7

For `Fc1ccc(-c2nnc3ccc(N4CCCC4)nn23)cc1` the molecule record lists inhibition as 8.52

For `CCCS(=O)(=O)N1CCN(C(=O)c2cccnc2)CC1` the molecule record lists inhibition as -3.77

For `CCCCN(C)C(=O)c1ccc(CS(=O)(=O)c2ccccc2C)o1` the molecule record lists inhibition as -2.17

For COc1cccc(C2=NOC(C(=O)N3CCN(c4ccccc4)CC3)C2)c1OC (stereo not given) the molecule record lists inhibition as 0

For CCOC(=O)c1ccc(NC(=O)Cn2cc3c(n2)CCC(C)C3)cc1 (stereo not given) the molecule record lists inhibition as -2.13

For `CCCc1cc(C(=O)Nc2ccccc2SC)no1` the molecule record lists inhibition as 5.67

For `O=C(CSc1nnc2ccccn12)c1ccccc1` the molecule record lists inhibition as -3.44

For `Cc1ccc(C)c2[nH]c(=O)c(CCNC(=O)CC(C)(C)C)cc12` the molecule record lists inhibition as -4.5

For `Oc1ccc2ccccc2c1CN1CCN(c2ccccc2F)CC1` the molecule record lists inhibition as -0.33

For `O=C1C/C(=C/NCc2ccccc2)C(=O)N1` the molecule record lists inhibition as -9

For `COc1ccccc1N1CCN(c2cc(=O)n(Cc3ccc(F)cc3)c(=O)[nH]2)CC1` the molecule record lists inhibition as 9.17

For `COC(=O)c1ccsc1NC(=O)CN1C(=O)CCC1=O` the molecule record lists inhibition as 15.7

For Cc1noc(/C=C/N(C)C)c1S(=O)(=O)N1CCCC(C(=O)NC2CCCCC2)C1 (stereo not given) the molecule record lists inhibition as -3.5

For `CCC(CC)C(=O)NCCc1cc2ccc(C)cc2[nH]c1=O` the molecule record lists inhibition as 4.67

For `Cc1ccccc1-c1nc(CN2CCC(C(=O)N3CCC(C(N)=O)CC3)CC2)c(C)o1` the molecule record lists inhibition as 4.67

For `N#CCCN1CCN(S(=O)(=O)c2ccc(S(=O)(=O)NC3CCCC3)cc2)CC1` the molecule record lists inhibition as -8

For `CCC(=O)Oc1ccc2c(C)cc(=O)oc2c1C` the molecule record lists inhibition as 9.21

---

Test: viability of HCT116 without oncogenic beta-catenin – human colon tumor cells, pilot screen (AID 823);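 further: 0% = wells killed by 20 µM Hyamine and 100% = untreated DMSO cell wells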
Details: HCT116 beta-catenin knockout viability, CellTiter-Glo, 60 h; at 10 µM; active compounds read low
Records with an inconclusive call do not appear.
assay metric: viability (%)
Report only the number, with the unit % understood.

For O=C(O)C1C2C=CC3(CN(C4CCCC4)C(=O)C13)O2 (configuration not stated) the compound record lists viability as 104

For `CCCNS(=O)(=O)c1cccc2cccnc12` the compound record lists viability as 101

For `Cc1ccc2oc(=O)c3cnn(CC(=O)NCCN4CCOCC4)c3c2c1` the compound record lists viability as 103

For `COc1ccc(NC(=O)CSc2nnc(Cc3cccn3C)n2-c2ccc(F)cc2)cc1` the compound record lists viability as 88.8

For CC1CCC(NC(=O)C2(C)CCC(=O)N2Cc2cccnc2)CC1 (configuration not stated) the compound record lists viability as 107

For `COc1cc(-c2nc(-c3ccncc3)no2)cc(OC)c1OC` the compound record lists viability as 103

For `COc1ccc(NS(=O)(=O)c2ccc(NC(C)=O)cc2)cc1OC` the compound record lists viability as 85.4

For `CCN(CCCNS(=O)(=O)c1ccc2c(c1)oc(=O)n2C)c1cccc(C)c1` the compound record lists viability as 87.2

For OCCCc1nc2n(n1)C(c1ccccc1)C=C(c1ccccc1)N2 (configuration not stated) the compound record lists viability as 97.1

For COc1ccccc1NC(=O)C1CCCN(S(=O)(=O)c2cnc[nH]2)C1 (configuration not stated) the compound record lists viability as 97

For `CCC(=O)Nc1cccc(Br)c1` the compound record lists viability as 96.4

For `Cc1occc1C(=O)N1CCN(c2ncccn2)CC1` the compound record lists viability as 101

For `c1ccc(-c2nnc(CSc3nncs3)o2)cc1` the compound record lists viability as 106

For `CCOC(=O)c1ccc(N2Cc3cc(C)c(C)cc3C2)cc1O` the compound record lists viability as 107

For `O=C1CN(c2nc3ccccc3n3cnnc23)CC(=O)N1CCc1ccccc1` the compound record lists viability as 102

For `CCOC(=O)C(C)(C)Sc1nc2c(cnn2-c2ccc(Cl)cc2)c(=O)[nH]1` the compound record lists viability as 91.9

For COc1ccc(N2C(=O)CCC(C(=O)N3CCCCC3)C2c2ccc(OC)c(OC)c2)cc1 (configuration not stated) the compound record lists viability as 105

For CCOc1ccc(C2N(c3ccc(F)cc3)C(=O)C3CCCN32)cc1 (configuration not stated) the compound record lists viability as 94.3

For `Cc1nc2ccccc2c2oc(C(=O)NCCCN3CCCC3=O)cc12` the compound record lists viability as 94.5

For COc1ccccc1NC1C=CS(=O)(=O)C1 (configuration not stated) the compound record lists viability as 99.5

For `CCN(Cc1ccccc1)C(=O)CSc1nc(C)cc(C)c1C#N` the compound record lists viability as 104

For COc1ccc(NC(=O)C2CCCN(S(=O)(=O)c3cccc4cccnc34)C2)cc1 (configuration not stated) the compound record lists viability as 88.2

For `COc1ccc(S(=O)(=O)N2CCCN(S(=O)(=O)c3ccc(OC)cc3C)CC2)c(C)c1` the compound record lists viability as 87.2

For `O=c1c2ccccc2nc2c3ccccc3ncn12` the compound record lists viability as 103

For `O=C(CS(=O)(=O)c1cn(Cc2ccc(F)cc2)c2ccccc12)N1CCCCC1` the compound record lists viability as 82.4

For `CC1CCN(C(=O)CSc2nnc(-c3ccco3)o2)CC1` the compound record lists viability as 106

For `CC1(C)CC(=O)c2cnc(NC(=O)CCc3ccccc3)nc2C1` the compound record lists viability as 97.6

For `CCCc1cc(C(=O)Nc2sc(C)c(C)c2C(=O)OCC)no1` the compound record lists viability as 102

For `O=C(CSc1nnc2ccccn12)N1CCc2ccccc2C1` the compound record lists viability as 99.7

For COc1ccc2[nH]c(C)c(CCN3C(=O)OC(C)(C)C3(C)O)c2c1 (configuration not stated) the compound record lists viability as 107

For `Cc1sc2nc(CSc3nnc(Cc4cccs4)n3C3CCCCC3)[nH]c(=O)c2c1C` the compound record lists viability as 92.8

For `CC(C)c1nnc(NC(=O)Cc2cccs2)s1` the compound record lists viability as 99.5

For CC1CCN(C(=O)C(Cc2ccccc2)n2cccc2)CC1 (configuration not stated) the compound record lists viability as 87.9

For `O=C(c1cnn2c(C(F)(F)F)cc(-c3ccccc3)nc12)N1CCOCC1` the compound record lists viability as 103

For `CC(=O)c1c(C)nc2ccc(Br)cc2c1C(=O)O` the compound record lists viability as 98.2

For `CCOc1ccc(Cn2nnc(C(=O)Nc3cc(C)cc(C)c3)c2N)cc1` the compound record lists viability as 73

For CC(=O)N1c2c(cc(Br)cc2S(=O)(=O)N2CCN(c3ccccn3)CC2)CC1C (configuration not stated) the compound record lists viability as 99.1

For `Cc1ccccc1-c1nnc(-c2ccc(Cl)cc2)o1` the compound record lists viability as 77.9

For `Cc1noc(C)c1S(=O)(=O)N1CCN(Cc2ccc3c(c2)OCO3)CC1` the compound record lists viability as 95.3

For `CCCCn1c2c(c3ccccc31)CCc1nonc1-2` the compound record lists viability as 80.4

For `Cc1nc2ccccc2c2oc(C(=O)N3CCN(C(=O)c4ccco4)CC3)cc12` the compound record lists viability as 101

For `CCN(C1CCCCC1)S(=O)(=O)c1ccc(S(=O)(=O)N2CCN(CCC#N)CC2)cc1` the compound record lists viability as 86.6

For `CCCn1cc(SCC(=O)Nc2nnc(C)s2)c2ccccc21` the compound record lists viability as 91

For `CCN(CC)C(=O)COC(=O)c1ccc(O)cc1` the compound record lists viability as 95.6

For `CCCCS(=O)(=O)NC1=NCN(CCOC(=O)c2ccccc2)CN1` the compound record lists viability as 91.8

For `Clc1cccc(-c2nnc(-c3ccccc3)o2)c1` the compound record lists viability as 4.61

For `COC(=O)COC(=O)c1ccc(O)cc1` the compound record lists viability as 99.5
